FYI, the data here is from paper PMC8307404.

# TARGET_OR_SYSTEM: SRPK1 (Homo sapiens)
# Sequence (Q96SB4 whole entry): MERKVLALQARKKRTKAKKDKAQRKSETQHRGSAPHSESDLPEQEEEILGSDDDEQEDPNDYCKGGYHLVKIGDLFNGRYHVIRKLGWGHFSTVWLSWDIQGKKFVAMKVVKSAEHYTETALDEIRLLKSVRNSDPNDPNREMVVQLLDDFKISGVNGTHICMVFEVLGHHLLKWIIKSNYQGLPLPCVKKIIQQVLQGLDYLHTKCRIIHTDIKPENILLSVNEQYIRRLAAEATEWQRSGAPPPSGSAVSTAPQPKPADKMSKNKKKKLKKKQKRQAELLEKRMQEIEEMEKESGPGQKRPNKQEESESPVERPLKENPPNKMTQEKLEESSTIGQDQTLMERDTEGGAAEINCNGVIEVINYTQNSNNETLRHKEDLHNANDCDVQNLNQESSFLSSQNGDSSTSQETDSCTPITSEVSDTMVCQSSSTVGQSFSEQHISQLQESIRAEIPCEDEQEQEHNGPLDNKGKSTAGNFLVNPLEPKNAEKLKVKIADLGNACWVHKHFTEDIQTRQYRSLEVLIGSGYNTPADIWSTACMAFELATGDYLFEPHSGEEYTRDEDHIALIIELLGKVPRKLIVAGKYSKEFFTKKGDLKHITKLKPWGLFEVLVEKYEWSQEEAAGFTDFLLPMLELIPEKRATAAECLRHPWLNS
# EXPERIMENT: Kinase profiling (radiometric filter-binding)
# Type: biochemical
# PARTICULARS: SRPK1, 1 µM inhibitor; read-out: Residual activity, %
Square brackets hold non-standard residues; d marks the D form. Peptide text beside a SMILES is read from it. * marks the point of attachment. X3 = O=C(CCCCCNCc1nc2c(sc3cc(Br)cnc32)c(=O)[nH]1)*
READOUT: remaining activity at 1 µM (%)
Kindly answer with a numeric value in %, unit omitted.

- MOLECULE: "N=C(N)NCCC[C@@H](NC(=O)CCCCCNCc1nc2c(sc3cc(Br)cnc32)c(=O)[nH]1)C(=O)N[C@H](CCCNC(=N)N)C(=O)N[C@H](CCCNC(=N)N)C(=O)N[C@H](CCCNC(=N)N)C(=O)N[C@H](CCCNC(=N)N)C(=O)N[C@H](CCCNC(=N)N)C(=O)N[C@H](CCCCN)C(N)=O [ARC-3126, BPTP-Ahx-(D-Arg)6-D-Lys-NH2] (X3-[dR][dR][dR][dR][dR][dR][dK]-NH2)"
  remaining activity at 1 µM, %: 89

Consider the molecule shown here: "N=C(N)NCCC[C@@H](NC(=O)CNC(=O)[C@@H](CCCNC(=N)N)NC(=O)[C@@H](CCCNC(=N)N)NC(=O)CCCCCCCNCc1nc2c(sc3cc(Br)cnc32)c(=O)[nH]1)C(=O)N[C@H](CCCCN)C(N)=O" What is its recorded remaining activity at 1 µM?
102

Query (molecule): "N=C(N)NCCC[C@@H](NC(=O)CNC(=O)[C@@H](CCCNC(=N)N)NC(=O)[C@@H](CCCNC(=N)N)NC(=O)Cn1cc(CNCc2nc3c(sc4ccc(Br)cc43)c(=O)[nH]2)nn1)C(=O)N[C@H](CCCCN)C(N)=O" ; field requested: remaining activity at 1 µM
91

What does the data say about its remaining activity at 1 µM? Entry: "N=C(N)NCCC[C@@H](NC(=O)CNC(=O)[C@@H](CCCNC(=N)N)NC(=O)[C@@H](CCCNC(=N)N)NC(=O)CCCCCCCNCc1nc2c(sc3ccc(Br)cc32)c(=O)[nH]1)C(=O)N[C@H](CCCCN)C(N)=O"
113

Which remaining activity at 1 µM is reported for this molecule? "N=C(N)NCCC[C@@H](NC(=O)CCCCCNC(=O)Cn1cnc2c(I)c(I)c(I)c(I)c21)C(=O)N[C@H](CCCNC(=N)N)C(=O)N[C@H](CCCNC(=N)N)C(=O)N[C@H](CCCNC(=N)N)C(=O)N[C@H](CCCNC(=N)N)C(=O)N[C@H](CCCNC(=N)N)C(=O)N[C@H](CCCCN)C(N)=O"
54
